Recorded interaction score by entry
- testTarget: T1, 4H492-bN
- T1 chain: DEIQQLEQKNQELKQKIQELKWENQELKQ
- experimentSummary: two-hybrid library CCNG1;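 note: natural log of median RNA to DNA barcode read ratio; higher means stronger binding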
Reply with just the number.

Past entries and their recorded results:
>  <binder>
DKIQQLKQKIQELKQKIQELEWENQELEQ [4H2915-bN]

>  <interaction score>
-1.44

$$$$
>  <binder>
DEIQQLEQKIQELEQKNQELKWKNQELEQ [4H319-bN]

>  <interaction score>
-0.916

$$$$
>  <binder>
DEIQQLEQEIQELEQKIQELEWKNQELKQ [4H40-bN]

>  <interaction score>
-0.862

$$$$
>  <binder>
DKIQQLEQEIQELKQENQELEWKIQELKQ [4H2134-bN]

>  <interaction score>
-1.68

$$$$
>  <binder>
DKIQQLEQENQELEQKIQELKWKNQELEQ [4H2223-bN]

>  <interaction score>
0.539

$$$$

I am curious: what interaction score value has been reported for DKIQQLEQKNQELKQEIQELEWKNQELEQ [4H2503-bN] ?
0.186

I am curious: what interaction score value has been reported for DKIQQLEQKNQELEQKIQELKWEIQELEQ [4H2473-bN] ?
-0.992

I am curious: what interaction score value has been reported for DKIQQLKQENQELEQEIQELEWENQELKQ [4H2692-bN] ?
1.22

I am curious: what interaction score value has been reported for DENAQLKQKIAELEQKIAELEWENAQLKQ [4H1828-bA] ?
-2.71

I am curious: what interaction score value has been reported for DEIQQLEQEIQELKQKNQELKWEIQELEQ [4H121-bN] ?
-1.42

I am curious: what interaction score value has been reported for DKIQQLKQEIQELEQENQELKWENQELKQ [4H2588-bN] ?
-0.343

I am curious: what interaction score value has been reported for DKIQQLEQKNQELEQEIQELEWKIQELKQ [4H2438-bN] ?
0.204

I am curious: what interaction score value has been reported for DEIQQLEQKIQELKQENQELKWENQELKQ [4H348-bN] ?
0.214

I am curious: what interaction score value has been reported for DEIQQLEQKNQELKQENQELKWKIQELEQ [4H477-bN] ?
-0.94
